What Ki was measured for each of the following?
assayed target: T1, α5β1 integrin (UniProt P08648 42-995; P05556 21-728, limits assumed)
T1 construct: Coated on microtiter plates
T1 sequence (P08648 42-995 limits assumed, chain 1 of 2): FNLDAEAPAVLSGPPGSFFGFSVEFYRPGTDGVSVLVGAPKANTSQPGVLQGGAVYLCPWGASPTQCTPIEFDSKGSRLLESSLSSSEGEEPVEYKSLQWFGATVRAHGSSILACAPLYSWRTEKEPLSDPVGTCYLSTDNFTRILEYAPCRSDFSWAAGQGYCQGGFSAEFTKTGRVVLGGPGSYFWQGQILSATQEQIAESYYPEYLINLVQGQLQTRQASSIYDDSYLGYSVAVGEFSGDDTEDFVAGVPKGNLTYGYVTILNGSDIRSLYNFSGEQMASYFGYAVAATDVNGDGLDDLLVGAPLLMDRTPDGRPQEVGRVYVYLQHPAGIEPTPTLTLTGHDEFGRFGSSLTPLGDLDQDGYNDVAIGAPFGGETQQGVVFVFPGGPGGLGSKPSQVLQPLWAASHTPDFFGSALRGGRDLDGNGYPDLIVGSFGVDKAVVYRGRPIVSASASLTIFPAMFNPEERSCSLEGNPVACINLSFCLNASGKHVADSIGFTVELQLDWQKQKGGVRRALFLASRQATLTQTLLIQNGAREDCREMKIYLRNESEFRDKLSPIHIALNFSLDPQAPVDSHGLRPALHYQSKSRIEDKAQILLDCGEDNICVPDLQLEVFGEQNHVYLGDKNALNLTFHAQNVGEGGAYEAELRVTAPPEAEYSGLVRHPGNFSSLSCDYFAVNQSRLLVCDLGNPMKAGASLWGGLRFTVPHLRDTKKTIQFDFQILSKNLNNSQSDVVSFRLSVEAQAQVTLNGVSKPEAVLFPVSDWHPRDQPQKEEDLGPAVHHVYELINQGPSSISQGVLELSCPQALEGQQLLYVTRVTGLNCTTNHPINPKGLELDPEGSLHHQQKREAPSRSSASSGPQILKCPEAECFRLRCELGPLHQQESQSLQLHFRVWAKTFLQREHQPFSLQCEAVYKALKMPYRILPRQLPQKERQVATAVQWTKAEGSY
T1 sequence (P05556 21-728 limits assumed, chain 2 of 2): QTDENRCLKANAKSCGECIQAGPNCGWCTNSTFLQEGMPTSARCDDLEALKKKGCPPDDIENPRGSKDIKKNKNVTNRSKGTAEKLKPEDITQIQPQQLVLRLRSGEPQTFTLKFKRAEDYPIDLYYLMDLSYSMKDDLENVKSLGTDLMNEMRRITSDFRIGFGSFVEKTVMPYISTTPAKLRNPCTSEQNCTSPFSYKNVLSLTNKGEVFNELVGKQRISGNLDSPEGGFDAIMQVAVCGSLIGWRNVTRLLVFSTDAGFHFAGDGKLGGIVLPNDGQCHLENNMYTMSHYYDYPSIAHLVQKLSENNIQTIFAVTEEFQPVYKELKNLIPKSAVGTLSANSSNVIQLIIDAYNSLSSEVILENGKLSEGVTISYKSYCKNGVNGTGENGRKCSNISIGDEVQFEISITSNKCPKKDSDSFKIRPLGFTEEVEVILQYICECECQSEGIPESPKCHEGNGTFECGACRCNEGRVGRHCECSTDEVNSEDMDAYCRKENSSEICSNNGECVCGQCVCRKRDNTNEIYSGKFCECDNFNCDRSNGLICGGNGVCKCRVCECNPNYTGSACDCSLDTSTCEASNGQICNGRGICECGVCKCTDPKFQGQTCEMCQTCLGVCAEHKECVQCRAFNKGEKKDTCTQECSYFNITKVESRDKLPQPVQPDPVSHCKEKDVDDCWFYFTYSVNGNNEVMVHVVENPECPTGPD
method: competitive binding assay, integrin-coated plates; competitor probe acetyl-CisoDGRCG/streptavidin-peroxidase
Starred links: 1 amine or outer side, 2 acyl side, 3 side chain; linkers in the order of their positions; H or OH if unused. Positions of bridges follow the written chain, without caps; N, C: chain ends. Non-standard residues stand in square brackets, D forms with d. No end group written: not given here. βAsp = O=C(O)[C@H](CC(=O)[*:2])N[*:1]
Give bare numbers, in nM.

Please give Ki for each item listed below.
1. SC[βAsp]GRCGVRY (disulfide 2-6) [SCisoDGRCGVRY peptide]
2. Ac-C[βAsp]GRCGVRY (disulfide 1-5) [acetyl-CisoDGRCGVRY peptide]
3. C[βAsp]GRCGVRY (disulfide 1-5) [CisoDGRCGVRY peptide]
4. SCDGRCGVRY [SCDGRCGVRY peptide]

Found:
[11, 4, 75, 4790]
